systemName: DNA ligase 1 (Homo sapiens)
Sequence (P18858 whole entry): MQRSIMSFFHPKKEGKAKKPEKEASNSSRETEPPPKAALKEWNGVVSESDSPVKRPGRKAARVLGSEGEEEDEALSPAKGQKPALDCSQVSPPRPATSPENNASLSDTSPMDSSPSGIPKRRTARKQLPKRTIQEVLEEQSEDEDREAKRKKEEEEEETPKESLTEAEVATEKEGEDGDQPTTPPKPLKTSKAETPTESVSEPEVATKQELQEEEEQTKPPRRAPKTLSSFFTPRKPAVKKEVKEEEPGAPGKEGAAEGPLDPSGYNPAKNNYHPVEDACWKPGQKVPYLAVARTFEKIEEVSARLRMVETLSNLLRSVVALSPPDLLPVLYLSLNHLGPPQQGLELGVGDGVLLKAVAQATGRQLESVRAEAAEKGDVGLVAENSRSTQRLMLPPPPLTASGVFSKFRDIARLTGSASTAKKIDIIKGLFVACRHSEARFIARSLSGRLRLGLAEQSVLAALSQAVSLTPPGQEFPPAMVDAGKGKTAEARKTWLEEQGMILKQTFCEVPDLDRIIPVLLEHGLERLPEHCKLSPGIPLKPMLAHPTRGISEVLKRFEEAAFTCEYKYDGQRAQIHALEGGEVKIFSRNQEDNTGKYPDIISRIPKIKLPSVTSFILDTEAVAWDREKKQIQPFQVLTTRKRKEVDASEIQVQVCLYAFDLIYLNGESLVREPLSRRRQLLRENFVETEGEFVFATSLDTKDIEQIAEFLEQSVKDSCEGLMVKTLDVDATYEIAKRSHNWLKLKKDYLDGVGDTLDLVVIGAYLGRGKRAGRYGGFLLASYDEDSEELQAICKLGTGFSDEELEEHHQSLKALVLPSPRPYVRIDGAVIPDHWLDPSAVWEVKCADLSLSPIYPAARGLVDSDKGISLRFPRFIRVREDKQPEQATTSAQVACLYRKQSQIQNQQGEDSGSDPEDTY
protocolNotes: Inhibition of nick joining activity of human DNA ligase 1 using [gamma32P]ATP-labeled nicked 40 bp DNA as substrate
Measured IC50 values are reported for all entries that follow.
Give your result in µM as a bare value.

{"compound": "O=C1C2(CCCC13CC3c1ccc(Cl)cc1)CC2c1ccc(Cl)cc1 (centres undefined)", "IC50 [µM]": 18.5}
{"compound": "O=C1C2(CCCC13CC3c1ccc(F)cc1)CC2c1ccc(F)cc1 (centres undefined)", "IC50 [µM]": 45.4}
{"compound": "O=C1C2(CCCC13CC3c1ccc(Br)cc1)CC2c1ccc(Br)cc1 (centres undefined)", "IC50 [µM]": 58.6}

Now consider the entry below.
Item: O=C1C2(CCCC13CC3c1ccccc1)CC2c1ccccc1 (centres undefined) | System: DNA ligase 1 (Homo sapiens) | IC50: 130
